Target: OX2 receptor (Homo sapiens)
Construct: host or cells: CHO-K1
Sequence (O43614 whole entry): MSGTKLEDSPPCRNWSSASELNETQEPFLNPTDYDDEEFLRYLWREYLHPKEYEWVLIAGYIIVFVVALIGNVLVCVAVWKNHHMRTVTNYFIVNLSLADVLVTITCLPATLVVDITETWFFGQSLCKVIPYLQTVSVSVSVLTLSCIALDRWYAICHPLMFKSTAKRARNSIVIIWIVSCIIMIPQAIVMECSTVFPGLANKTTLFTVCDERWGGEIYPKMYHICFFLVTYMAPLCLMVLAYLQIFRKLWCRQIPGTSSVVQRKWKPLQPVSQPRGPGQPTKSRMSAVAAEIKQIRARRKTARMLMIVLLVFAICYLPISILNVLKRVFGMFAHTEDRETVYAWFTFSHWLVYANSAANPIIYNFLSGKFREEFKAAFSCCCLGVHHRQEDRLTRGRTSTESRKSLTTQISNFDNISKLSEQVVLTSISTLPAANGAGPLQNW
Test: Orexin target function test (Cisbio HTRF IP-one), CHO-K1-OX2 cells, antagonism of EC80 Orexin 2 receptor agonist
Type: cell-based
Experimental Endpoint: IC50 (nM)
Give bare numbers, in nM.

Compound | Test System | Readout Units | Endpoint Value
Cc1nc(C2=CC3CN(C(=O)c4c(F)cccc4-n4nccn4)CC3C2)nc2ccoc12 (centres unmarked) | OX2 receptor (Homo sapiens) | nM | 23.4

Please state IC50 for every compound in the list that follows.
1. COc1ncc(C)nc1C1=CC2CN(C(=O)c3ccc(F)cc3-n3nccn3)CC2C1 (centres unmarked)
2. Cc1nc(C2=CC3CN(C(=O)c4ccc(F)cc4-n4nccn4)CC3C2)nc(C)c1F (centres unmarked)
3. COc1ncc(C2CC2)nc1C1=CC2CN(C(=O)c3ccc(F)cc3-n3nccn3)CC2C1 (centres unmarked)
4. Cc1nc(C2=CC3CN(C(=O)c4c(F)cccc4-n4nccn4)CC3C2)nc2c1CCC2 (centres unmarked)
5. COc1cc(-n2nccn2)c(C(=O)N2CC3C=C(c4nc(C)c(F)c(C)n4)CC3C2)cn1 (centres unmarked)
6. [2H]C([2H])([2H])Oc1cc(-n2nccn2)c(C(=O)N2CC3C=C(c4nc(C)c(F)c(C)n4)CC3C2)cn1 (centres unmarked)

Result:
1: 18; 2: 18; 3: 28; 4: 22; 5: 15; 6: 24

====

Assay: in vivo
Details: rat, in vivo, po, 30 mg/kg
Experimental Endpoint: Cmax (ng/mL)
Answers are plain numbers, in ng/mL.

Ask: Item under review: COc1cc(-n2nccn2)c(C(=O)N2CC3C=C(c4nc(C)c(F)c(C)n4)CC3C2)cn1 (stereo not shown) . Reported Cmax?
Result: 1940

====

Experiment: in vivo
Conditions: male, SD, rat, plasma, po, 30 mg/kg
Would you mind telling me the reported AUC(0-t) of each entry?

Give AUC(0-t) for each listed item.
1. Cc1nc(C2=CC3CN(C(=O)c4ccc(F)cc4-n4nccn4)CC3C2)nc(C)c1F (centres unmarked)
2. COc1ncc(C)nc1C1=CC2CN(C(=O)c3ccc(F)cc3-n3cccn3)CC2C1 (centres unmarked)
3. CCOc1ccc(C(=O)N2CC3C=C(c4nc(C)cnc4OC)CC3C2)c(-n2nccn2)c1 (centres unmarked)
4. COc1nc(C2=CC3CN(C(=O)c4c(F)cccc4-n4nccn4)CC3C2)nc(C)c1F (centres unmarked)
5. COc1ccc(C(=O)N2CC3C=C(c4nc(C)c(F)c(C)n4)CC3C2)c(-n2nccn2)c1 (centres unmarked)
6. COc1ccc(C(=O)N2CC3C=C(c4nc(C)cnc4OC)CC3C2)c(-c2ncccn2)c1 (centres unmarked)
7. COc1ccc(C(=O)N2CC3C=C(c4nc(C)cnc4OC)CC3C2)c(-n2nccn2)c1 (centres unmarked)

Result:
1: 15000 ng·h/mL; 2: 5400 ng·h/mL; 3: 36000 ng·h/mL; 4: 16900 ng·h/mL; 5: 18500 ng·h/mL; 6: 10100 ng·h/mL; 7: 5600 ng·h/mL

Ask: If you can, please state the reported AUC(0-t) value of Cc1nc(C2=CC3CN(C(=O)c4c(F)cccc4-n4nccn4)CC3C2)nc(C(C)(C)O)c1F (centres unmarked) .
Result: 16800 ng·h/mL

====

Test: in vivo
Details: rat, in vivo, po, 30 mg/kg
Experimental Endpoint: AUC(0-t) (ng·h/mL)
Numbers only, in ng·h/mL.

Ask: Form field: reported AUC(0-t) of COc1cc(-n2nccn2)c(C(=O)N2CC3C=C(c4nc(C)c(F)c(C)n4)CC3C2)cn1 (stereo not shown) [Compound 22]
Result: 2640
